Test system: NCI-H226
Assay: NCI tumour cell line growth inhibition, 48 h
Calls of active or inactive are those of the source. Rule as the data show it: active = GI50 up to about 1.1 µM and inactive = higher.
parameter.measured: GI50

compound	test.value
C=CCN(c1cc(OC)c2[nH]cc(C)c2c1[N+](=O)[O-])S(C)(=O)=O	> 100 µM (inactive)
COc1c2c(cc3c(CCc4ccccc4)cc(=O)oc13)CCC(C)(C)O2	> 100 µM (inactive)
CC(C)=C[C@@H]1C[C@H](n2cc(C)c(=O)[nH]c2=O)ON1CCO	> 100 µM (inactive)
C#CCNCC(=O)O	> 100 µM (inactive)
O=C(O)c1cccc(/[As]=[As]\c2cccc(C(=O)O)c2)c1 (stereo not given)	84.9 µM (inactive)

* * *

System: CCRF-CEM
Experiment: NCI tumour cell line growth inhibition, 48 h
Active and inactive are the calls of the source. No stated cut-off is given here; in the data, active = GI50 up to about 1.1 µM and inactive = higher.

compound	assay.target	GI50
Cn1c(N)nc(-c2ccc(Cl)cc2)c1SSc1c(-c2ccc(Cl)cc2)nc(N)n1C	CCRF-CEM	2.44 µM (inactive)
c1ccc2c(c1)SCCc1cn[nH]c1-2	CCRF-CEM	> 100 µM (inactive)
O=C(CC(O)(c1ccccc1)c1ccc(Cl)cc1)NC(=O)c1ccccc1O (configuration not stated)	CCRF-CEM	4.41 µM (inactive)
O=C(/C=C(O)/C(=C/C(=O)c1ccccc1)NN=C(c1ccccc1)c1ccccc1)c1ccccc1	CCRF-CEM	3.3 µM (inactive)
CC(=O)N1NC(c2ccccc2)=NC(=O)C1c1cc(C)c(O)c(C)c1 (configuration not stated)	CCRF-CEM	> 100 µM (inactive)
CCc1n[nH]c(=O)n1-c1ccncc1	CCRF-CEM	> 100 µM (inactive)
Cc1cc(=O)n2nc(CCl)sc2n1	CCRF-CEM	6.62 µM (inactive)

* * *

List of GI50 tested on HCT-15.

compound	assay.target	GI50
COc1cc2oc(-c3ccc(O)cc3)c(OC3OC(C)C(O)C(O)C3O)c(=O)c2c(O)c1OC (centres undefined)	HCT-15	> 100 µM
Nc1nc(N)c2c(n1)CCC(S(=O)(=O)c1ccc3ccccc3c1)C2 (centres undefined)	HCT-15	2.38 µM
CC(C)C1=C(O)C(=O)C2=C(C1=O)C(O)CC1C(C)(C)CCCC21C (centres undefined)	HCT-15	3.71 µM
COc1cc(NS(C)(=O)=O)ccc1Nc1ccnc2ccc3[nH]ccc3c12	HCT-15	58.3 µM
COC(=O)C(=O)OC1(C(C)=O)CC2(c3ccccc3)OC1(c1ccccc1)c1ccccc12 (centres undefined)	HCT-15	16.9 µM
FC(F)=C(c1ccc(-c2ccc(Cl)cc2)cc1)C(F)(F)F	HCT-15	20.4 µM
CCOP(=O)(OCC)OC1CC(n2cc(C)c(=O)n(C)c2=O)OC1CO[Si](C)(C)C(C)(C)C (centres undefined)	HCT-15	> 100 µM
O=C(O)c1ccc(C(=O)O)c2c(C(=O)O)ccc(C(=O)O)c12	HCT-15	> 100 µM
C=C(C)CC1=C(OCC)C(OC)(OCC)C1=O (centres undefined)	HCT-15	> 100 µM
Cc1nc2ccccc2c(=O)n1NC(=S)Nc1ccccc1	HCT-15	> 100 µM
N/N=C(\C(=O)Nc1c(Cl)cc([N+](=O)[O-])cc1Cl)C(c1cnc2ccc([N+](=O)[O-])cc2n1)[N+](=O)[O-] (centres undefined)	HCT-15	> 100 µM
COc1ccc(/C=C/c2nccc3ccccc23)cc1OC	HCT-15	> 10 µM
c1ccc2nc3c(nc2c1)sc1ccccc13	HCT-15	58.9 µM
CC(C)(C)OC(=O)N1CC(O)O[C@H](c2ccccc2)[C@@H]1c1ccccc1 (some centres undefined)	HCT-15	18 µM
CCCCCCCCCCCCC(Br)C(=O)NCC(N)=O (centres undefined)	HCT-15	8.87 µM
CN(C1=NCCO1)c1cccc2ccccc12	HCT-15	> 10 µM
COC(=O)c1c2c(cc3c1CC1(C3)Cc3ccc4c(c3C1=O)CCC4)CCC2 (centres undefined)	HCT-15	3.58 µM
Cc1nc2ccccc2c(=O)n1NC(=O)c1ccc(CS)cc1	HCT-15	16.4 µM
C/C=C(/COC(C)=O)C(=O)OC1C=C(C=O)C(C)(C)C=C1C (centres undefined)	HCT-15	> 100 µM

* * *

Test system: OVCAR-8
Assay: NCI tumour cell line growth inhibition, 48 h
Calls of active or inactive are those of the source. Cut-off read from the data, not from the text of the source: active = GI50 up to about 1.1 µM and inactive = higher.
Possible outcomes: active, inactive

compound	assigned.class
O=c1cc2oc3ccc4ccccc4c3cc-2c(=O)[nH]1	inactive
Cc1ccc2c(O)cc(-c3cccc4ccccc34)nc2n1	active
NC(=O)c1ccccc1[N+](=O)[O-]	inactive
CC(=O)/C(=C/NC(=S)c1ccncc1)C(=O)Nc1ccccc1C	inactive
N=C(N)SCCC(=O)CCSC(=N)N	inactive
COC(=O)c1c2c(cc3c1CC1(C3)Cc3ccc4c(c3C1=O)CCC4)CCC2 (stereo not drawn)	inactive
O=C(CC(O)(c1ccccc1)c1ccc(Cl)cc1)NC(=O)c1ccccc1O (stereo not drawn)	inactive
CC(=O)OCC1OC(Nc2ncc(-c3ccc(C)cc3)s2)C(OC(C)=O)C(OC(C)=O)C1OC(C)=O (stereo not drawn)	inactive
Cn1c2c(c3ccccc3c1=O)C(=O)c1ccccc1-2	inactive
O=C1Nc2nc3ccccc3n2N=C2CCCC12 (stereo not drawn)	inactive
CCOC(=O)C1=NN(c2ccc(Cl)cc2)C2=CC(C)=NN(C)C(=S)N21	inactive
Fc1ccc(OCc2ccc3nc(-c4ccccc4)c(Cl)nc3c2)cc1	inactive
Nc1nc(N)c2nn(-c3ccc(C(=O)O)cc3)nc2n1	inactive

* * *

Tested on: OVCAR-8
Assay: NCI tumour cell line growth inhibition, 48 h
Calls of active or inactive are those of the source. No stated cut-off is given here; in the data, active = GI50 up to about 1.1 µM and inactive = higher.
Possible outcomes: active, inactive

molecule	assay.target	assigned.class
COc1cc(C(N)=O)cc(NC(=O)/C=C/c2ccccc2)c1OC	OVCAR-8	inactive
O=C(CNc1ccc2c(=S)c3ccccc3[nH]c2c1)Nc1ccccc1-c1ccccc1NC(=O)CNc1ccc2c(=S)c3ccccc3[nH]c2c1	OVCAR-8	inactive
O=C(O)C(F)(F)C(F)(F)C(F)(F)C(F)(F)C(F)(F)C(F)(F)C(F)(F)C(F)(F)F	OVCAR-8	inactive
COc1ccc2c(c1)c1c(n2CCN(C)C)-c2ccccc2CC1	OVCAR-8	inactive
CCCCCCCCOCC(O)CO (stereo not given)	OVCAR-8	inactive
C[C@]12CC[C@@H]3c4cc(Br)c(O)c(Br)c4CC[C@H]3[C@@H]1CCC2=O	OVCAR-8	inactive
CC(=O)NC1=C(C)C(=O)c2c(nc3n2CCC3OC(=O)c2ccccc2)C1=N (stereo not given)	OVCAR-8	active
[N-]=[N+]=NC1=NNC2(C(=O)N1)c1ccccc1-c1ccccc12	OVCAR-8	inactive
OC1CSCCCSCCSCCCSC1	OVCAR-8	inactive
CCOC(=O)CNC(=O)NC12CC3CC(CC(C3)C1)C2	OVCAR-8	inactive

* * *

Test system: COLO 205
Experiment: NCI tumour cell line growth inhibition, 48 h
Activity calls are given as the source filed them. Rule as the data show it: active = GI50 up to about 1.1 µM and inactive = higher.
Possible outcomes: Y for active, N for inactive

compound	assigned.class
CN(CCn1cnc2c1c(=O)n(C)c(=O)n2C)C1CCCCC1	N
CC1CCN(c2nnc(Cl)cc2C(=O)c2ccccc2)CC1	N
COC(=O)C(Cc1ccccc1)/N=C/c1c(O)c(O)c(C(C)C)c2cc(C)c(-c3c(C)cc4c(C(C)C)c(O)c(O)c(/C=N/C(Cc5ccccc5)C(=O)OC)c4c3O)c(O)c12 (configuration not stated)	N
O=C(O)c1cccc(/[As]=[As]\c2cccc(C(=O)O)c2)c1 (configuration not stated)	N
Cc1cc(O)c2c(c1O)C(=O)C13C(=C(O)C4C(O)C1C1C(O)C3C(O)=C3C(=O)c5c(O)cc(C)c(O)c5C(=O)C341)C2=O (configuration not stated)	Y
CC(=O)OC1(Sc2ccccc2)CC2[C@H]3COC(C)(C)O[C@H]3CC[C@@]2(C)CC1=O (some centres not stated)	N
COc1ccc2c(c1)c1c(n2CCN(C)C)-c2ccccc2CC1	N
C=CC1(c2ccccc2Cl)N/C(=C/OCC)CO1 (configuration not stated)	N
COc1ccccc1/C=N/N=C(\N)NO	N
O=C(O)CCC(=O)c1ccc2c(c1)C(C(=O)O)CC2 (configuration not stated)	N
COC1OC(COCc2ccc(Cl)cc2)C(OCc2ccc(Cl)cc2)C1O (configuration not stated)	N
CCCCCCSc1nc(N)nc2nc[nH]c12	N
CSc1ncc2c(n1)-c1ccccc1OC2NC(C)(C)C (configuration not stated)	N
CCOC(=O)CCC1(CCC(=O)OCC)CCCCCCCCC(CCC(=O)OCC)(CCC(=O)OCC)C(=O)C1=O	N
CCC(C)C(=O)O[C@H]1C(=O)O[C@@H]2C[C@H]3C(C)=CC(=O)[C@@H](O)[C@]3(C)[C@H]3[C@@H](O)[C@H](O)[C@@]4(C)OC[C@]32[C@@H]14 (some centres not stated)	Y
O=c1oc2c3ccc4ccccc4c3n(CCN3CCOCC3)c2c2ccccc12	N
CC(=C(c1ccccc1)c1ccccc1)N1C(=O)CC(=O)N1C	N
C=CC[C@H]1[C@@H](O[Si](C)(C)C(C)(C)C)[C@H](n2ccc(=O)[nH]c2=O)O[C@@H]1CO[Si](C)(C)C(C)(C)C	N
NCCCC(N)(C(=O)O)C(F)F (configuration not stated) [EFLORNITHINE]	N
c1ccc(OCc2nnc(CCCCCCCCc3nnc(COc4ccccc4)o3)o2)cc1	N
O=C(O)C(F)(F)C(F)(F)C(F)(F)C(F)(F)C(F)(F)C(F)(F)C(F)(F)C(F)(F)F	N
Cn1nc(-c2cccc(-c3nn(C)/c(=N\CCO)s3)n2)s/c1=N/CCO	N
N=C1OC(CN2CCN(c3ccccc3)CC2)CN1C(=O)Nc1ccccc1 (configuration not stated)	N
CN(C)CCC1(C2=CCCC2)CC/C(=C\c2ccc(Cl)cc2)C1=O (configuration not stated)	N
O=C(CC(=O)C(F)(F)F)c1csc2ccccc12	N
CCN(CC)CCN1C(=O)CC2[C@@H]3CCc4cc(OC)ccc4C3CC[C@]2(C)C1=O (some centres not stated)	N
CC(C)C/C=C/C1=NN(c2cccc(S(=O)(=O)O)c2)C2(C1)SCC(=O)N2c1nc2ccccc2s1 (configuration not stated)	N
